Tested on: Raji
test_details: CCK-8 in vitro anti-tumor proliferation assay
Type: cell-based
stated_conditions: Homo sapiens, Table 3, 72 hours, read-out: IC50(uM) Raji
property_label: IC50 (µM)

Completed entries (count: 2):
O=c1nc2n(c3c1CN(Cc1ccccc1)CC3)CCN2Cc1ccc(F)c(F)c1 ... 0.1
O=c1nc2n(c3c1CN(Cc1ccccc1)CC3)CCN2Cc1ccc(C(F)(F)F)cc1 ... 0.1

[P] O=c1nc2n(c3c1CN(Cc1ccccc1)CC3)CCN2Cc1ccc(F)cc1F
[Q] Cc1ccccc1CN1CCn2c1nc(=O)c1c2CCN(Cc2ccccc2)C1
Form field 'greater IC50' accepts P or Q ; which applies? I would appreciate it if you answered with the label of your choice.
Q
(Q: 1 µM, P: 0.1 µM)
